# protocol summary: BSK_4H_SRB: Viability Assessment in the BioMAP Diversity Plus: 4H Assay (AID 2283027);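 further: cells exposed to compound for 24 h before staining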
# measurement setup: primary human endothelial cells (HUVEC)
Calls of active or inactive are those of the source. How the source made its calls: active means hit-call score of the fitted dose curve at least 0.9, where 1 is the maximum; inactive means score below 0.9.
Outcomes: active, inactive

>>> assigned_category("CCCCC/C=C/C=C/C=O")
"active"
>>> assigned_category("C#C[C@]1(O)CC[C@H]2[C@@H]3CCC4=Cc5oncc5C[C@]4(C)[C@H]3CC[C@@]21C")
"active"
>>> assigned_category("CCCCC(CC)COC(=O)/C=C\\C(=O)OCC(CC)CCCC (stereo not drawn)")
"inactive"
>>> assigned_category("O=C=NC1CCC(CC2CCC(N=C=O)CC2)CC1 (stereo not drawn)")
"inactive"
>>> assigned_category("C=C[Si](OCC)(OCC)OCC")
"inactive"
>>> assigned_category("CC(=O)[C@H]1CC[C@H]2[C@@H]3CC=C4C[C@@H](O)CC[C@]4(C)[C@H]3CC[C@]12C")
"inactive"
>>> assigned_category("Nc1cc([N+](=O)[O-])ccc1Cl")
"inactive"
>>> assigned_category("CCc1c(C)cc(N)c(CC)c1N")
"inactive"
>>> assigned_category("O=C(O)C[C@H](O)C[C@H](O)/C=C/c1c(C2CC2)nc2ccccc2c1-c1ccc(F)cc1")
"active"
>>> assigned_category("CC(=O)Nc1ccccc1O")
"inactive"
>>> assigned_category("BrC1CCC(Br)C(Br)CCC(Br)C(Br)CCC1Br (stereo not drawn)")
"active"
>>> assigned_category("CC1CCC(C(C)CS)CC1S (stereo not drawn)")
"active"
>>> assigned_category("COC(=O)c1ccc(C)cc1")
"inactive"
>>> assigned_category("CC(C)c1ccc(C(C)C)cc1")
"active"
>>> assigned_category("CCCCCCCCCC=O")
"inactive"
>>> assigned_category("CCCCCCCCC=O")
"inactive"
>>> assigned_category("CC(=O)/C=C/C1=C(C)CCCC1(C)C")
"inactive"
>>> assigned_category("COc1cc(C=O)ccc1OC(=O)C(C)C")
"inactive"
>>> assigned_category("C[C@H]1C[C@@H]2[C@H]([C@@H](O)C[C@@]3(C)[C@H]2CC[C@]3(O)C(=O)CO)[C@@]2(C)C=CC(=O)C=C12")
"inactive"
>>> assigned_category("NCCNCCN")
"inactive"
>>> assigned_category("Nc1cc([N+](=O)[O-])ccc1O")
"inactive"
>>> assigned_category("Cc1ccc(Nc2ccc(O)c3c2C(=O)c2ccccc2C3=O)cc1")
"inactive"
>>> assigned_category("Cc1ccc(O)c(C(C)(C)C)c1")
"active"
>>> assigned_category("OC[C@H]1O[C@H](O[C@]2(CCl)O[C@H](CCl)[C@@H](O)[C@@H]2O)[C@H](O)[C@@H](O)[C@H]1Cl")
"inactive"
>>> assigned_category("O=C1CCCCCCCCCCCCCCO1")
"active"
>>> assigned_category("CC(C)Oc1ccccc1O")
"inactive"
>>> assigned_category("Cc1cc(C2(c3cc(C)c(O)cc3C)OS(=O)(=O)c3ccccc32)c(C)cc1O")
"inactive"
>>> assigned_category("CNC[C@H](O)c1cccc(O)c1")
"inactive"

====

# protocol summary: ATG_GATA_CIS: Attagene CIS-FACTORIAL HepG2 Assay for human GATA Binding Protein (AID 2282944)
# measurement setup: HepG2 GATA cis-element reporter, Attagene multiplex mRNA; actives raise or lower the signal
Active and inactive are the calls of the source. The calls were made as follows: active = hit-call score of the fitted dose curve at least 0.9, where 1 is the maximum; inactive = score below 0.9.
Classes used: 1 (active), 0 (inactive)

>>> assigned_category("CCCCCCCCCCCCCC(=O)O")
0
>>> assigned_category("CC(C)C(C)(C)C(C)(C)C(C)(C)S")
0
>>> assigned_category("O=C(O)c1cccc([N+](=O)[O-])c1")
0
>>> assigned_category("CC(C#N)(CCC(=O)O)N=NC(C)(C#N)CCC(=O)O (configuration not stated)")
0
>>> assigned_category("CCOC(=O)c1ccccc1OC")
0
>>> assigned_category("CC1(C)[C@@H]2CC[C@@]1(C)[C@H](O)C2")
0
>>> assigned_category("CCCC[n+]1ccccc1")
0
>>> assigned_category("COc1cc(C(C)(C)C)c(O)c(C(C)(C)C)c1")
0
>>> assigned_category("COc1cccc(OC)c1")
0
>>> assigned_category("CC(C)(Oc1ccc(CCNC(=O)c2ccc(Cl)cc2)cc1)C(=O)O")
0
>>> assigned_category("CCCCCCCCCCCCCCCC(=O)O")
0
>>> assigned_category("CNCCCC12CCC(c3ccccc31)c1ccccc12")
0
>>> assigned_category("CC(=O)C(C)=O")
0
>>> assigned_category("CC(C)c1ccc(C(C)C)cc1")
0
>>> assigned_category("COc1ccc(O)cc1")
0
>>> assigned_category("CCCCCCOC(=O)CCCCC")
0
>>> assigned_category("CCCCCOC(=O)CCC")
0
>>> assigned_category("CC1=CCC2C(C1)C2(C)C (configuration not stated)")
0
>>> assigned_category("Cc1ccc(C(=O)O)o1")
0
>>> assigned_category("CC(C)(C#N)c1cc(Cn2cncn2)cc(C(C)(C)C#N)c1")
0
>>> assigned_category("CCO[Si](CCCS)(OCC)OCC")
0
>>> assigned_category("COC(=O)Cc1cccc2ccccc12")
0
>>> assigned_category("CCCCCCCCCCCCCCCCCC(=O)OCC(CC)CCCC (configuration not stated)")
0
>>> assigned_category("C=C(C)[C@@H]1CC[C@@H](C)C[C@@H]1O")
0
>>> assigned_category("C[Si](O[Si](C)(C)C)O[Si](C)(C)C")
0
>>> assigned_category("C=C(C)C(=O)NCCCN(C)C")
0
>>> assigned_category("CCCCCNCCCCC")
0
>>> assigned_category("OCCOCCOCCOCCO")
0
>>> assigned_category("COc1cc2ncnc(Nc3cccc(Cl)c3)c2cc1OC")
0
>>> assigned_category("CCCCCCCCCCCCSC")
0
>>> assigned_category("Cc1c(N(C)C)c(=O)n(-c2ccccc2)n1C")
0
>>> assigned_category("C=CCOC(=O)CCC1CCCCC1")
0
>>> assigned_category("O=C(O)c1ccc(C(=O)O)cc1")
0
>>> assigned_category("CCCCC(CC)COCCC#N (configuration not stated)")
0
>>> assigned_category("Cc1c(Cl)c(=O)oc2cc(O)ccc12")
0
>>> assigned_category("CC1=CCC(O)(C(C)C)CC1 (configuration not stated)")
0
>>> assigned_category("COCCCOc1ccnc(CS(=O)c2nc3ccccc3[nH]2)c1C (configuration not stated)")
0
>>> assigned_category("C=C(C)C(=O)O[C@H]1C[C@@H]2CC[C@@]1(C)C2(C)C")
0
>>> assigned_category("NCCCN1CCOCC1")
0
>>> assigned_category("CC(=O)/C=C/C1=C(C)CCCC1(C)C")
0
>>> assigned_category("CCCCCCCCCCCCN")
0
>>> assigned_category("CO[Si](C)(OC)c1ccccc1")
0
>>> assigned_category("C=C(C)C1CCC(C)CC1O (configuration not stated)")
0
>>> assigned_category("Nc1ccc(F)c([N+](=O)[O-])c1")
0
>>> assigned_category("COc1cc(C)cc(O)c1")
0
>>> assigned_category("CN(C)CCOCCN(C)C")
0
>>> assigned_category("Cc1ccc(C=O)s1")
0
>>> assigned_category("CC(O)C(C)O (configuration not stated)")
0
>>> assigned_category("O=CCCc1ccccc1")
0
>>> assigned_category("CCCC1CCC(=O)O1 (configuration not stated)")
0
>>> assigned_category("CCCCC(CC)COC(=O)/C=C\\C(=O)OCC(CC)CCCC (configuration not stated)")
0
>>> assigned_category("C[C@H]1C[C@@H]2[C@H]([C@@H](O)C[C@@]3(C)[C@H]2CC[C@]3(O)C(=O)CO)[C@@]2(C)C=CC(=O)C=C12")
0
>>> assigned_category("O=C(COc1ccc(Cl)cc1)N1CCN(Cc2ccc3c(c2)OCO3)CC1")
0
>>> assigned_category("COc1ccc(Cl)cc1C")
0
>>> assigned_category("Cc1ccc2ccccc2n1")
0
>>> assigned_category("Nc1cc([N+](=O)[O-])ccc1Cl")
0
>>> assigned_category("CC1(C)[C@H]2CC[C@]1(C)[C@H](O)C2")
0
>>> assigned_category("CC(C)C1CCC(O)CC1 (configuration not stated)")
0
>>> assigned_category("Cc1ccc2n[nH]nc2c1")
0
>>> assigned_category("O=C1c2ccccc2C(=O)N1SC1CCCCC1")
1
>>> assigned_category("OCCCCCO")
0
>>> assigned_category("O=P(c1ccccc1)(c1ccccc1)c1ccccc1")
0

====

# protocol summary: ATG_TCF_b_cat_CIS: Attagene CIS-FACTORIAL HepG2 Assay for human T-Cell-Factor with beta-catenin (TCF/b-cat) (AID 2282965)
# measurement setup: HepG2 TCF/beta-catenin cis-reporter transcription, actives raise or lower the signal
Activity calls are given as the source filed them. How the source made its calls: active means hit-call score of the fitted dose curve at least 0.9, where 1 is the maximum; inactive means score below 0.9.
Outcome codes: label 1 for active, label 0 for inactive

>>> assigned_category("CN(C)C(=N)N=C(N)N")
"label 0"
>>> assigned_category("CCCCCCCCCCCCCCCCCC(=O)OCC(CC)CCCC (configuration not stated)")
"label 0"
>>> assigned_category("COc1ccnc(CS(=O)c2nc3cc(OC(F)F)ccc3[nH]2)c1OC (configuration not stated)")
"label 0"
>>> assigned_category("Nc1cc(N)cc(C(=O)O)c1")
"label 0"
>>> assigned_category("CNCCCC12CCC(c3ccccc31)c1ccccc12")
"label 1"
>>> assigned_category("CCCCNC(=O)NS(=O)(=O)c1ccc(N)cc1")
"label 0"
>>> assigned_category("CCCCCCC#CC(=O)OC")
"label 0"
